target: Dpo4•DNA binary complex (Saccharolobus solfataricus); assay: Substrate specificity assay; assay type: biochemical, Sulfolobus solfataricus; conditions: DNA substrate 20/26-mer-dG^C8-N-ABA vs control 20/26-mer
# Efficiency Ratio (kp/Kd, dNTP)control/(kp/Kd, dNTP)damaged values compiled below
Answer using only a numeral; do not append any unit.

Example entries begin here.
| MOLECULE | DATA VALUE |
| --- | --- |
| Nc1nc2c(ncn2[C@H]2C[C@H](O)[C@@H](COP(=O)(O)OP(=O)(O)OP(=O)(O)O)O2)c(=O)[nH]1 [dGTP] | 66 |
| Nc1ncnc2c1ncn2[C@H]1C[C@H](O)[C@@H](COP(=O)(O)OP(=O)(O)OP(=O)(O)O)O1 [dATP] | 6.3 |
| Nc1ccn([C@H]2C[C@H](O)[C@@H](COP(=O)(O)OP(=O)(O)OP(=O)(O)O)O2)c(=O)n1 [dCTP] | 120 |

Let us move to another entry and its Efficiency Ratio (kp/Kd, dNTP)control/(kp/Kd, dNTP)damaged.
Endpoint output: Efficiency Ratio (kp/Kd, dNTP)control/(kp/Kd, dNTP)damaged of Cc1cn([C@H]2C[C@H](O)[C@@H](COP(=O)(O)OP(=O)(O)OP(=O)(O)O)O2)c(=O)[nH]c1=O [dTTP] . Value? 52

---

Target: Dpo4•DNA binary complex (Saccharolobus solfataricus, UniProt Q97W02)
Sequence (Q97W02 1-352): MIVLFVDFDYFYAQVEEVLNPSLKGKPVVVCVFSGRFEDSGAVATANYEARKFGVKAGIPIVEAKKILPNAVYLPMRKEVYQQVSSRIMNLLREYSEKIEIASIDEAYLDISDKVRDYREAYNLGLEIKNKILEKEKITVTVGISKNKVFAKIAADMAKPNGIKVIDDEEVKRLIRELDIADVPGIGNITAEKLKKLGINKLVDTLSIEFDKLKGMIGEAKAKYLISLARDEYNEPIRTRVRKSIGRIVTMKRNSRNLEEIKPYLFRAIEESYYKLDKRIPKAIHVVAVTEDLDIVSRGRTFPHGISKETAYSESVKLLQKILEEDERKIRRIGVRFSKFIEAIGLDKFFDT
Assay: Substrate specificity assay
Type: biochemical, Sulfolobus solfataricus
Conditions: DNA substrate 21/26-mer-dG^C8-N-ABA vs control 21/26-mer
# Efficiency Ratio (kp/Kd, dNTP)control/(kp/Kd, dNTP)damaged values compiled below
Answer using only a numeral; do not append any unit.

| LINE NOTATION | DATA VALUE |
| --- | --- |
| Cc1cn([C@H]2C[C@H](O)[C@@H](COP(=O)(O)OP(=O)(O)OP(=O)(O)O)O2)c(=O)[nH]c1=O | 4.5 |
| Nc1ncnc2c1ncn2[C@H]1C[C@H](O)[C@@H](COP(=O)(O)OP(=O)(O)OP(=O)(O)O)O1 | 2.4 |
| Nc1nc2c(ncn2[C@H]2C[C@H](O)[C@@H](COP(=O)(O)OP(=O)(O)OP(=O)(O)O)O2)c(=O)[nH]1 | 170 |

Let us move to another entry and its Efficiency Ratio (kp/Kd, dNTP)control/(kp/Kd, dNTP)damaged.
Requested read-out Efficiency Ratio (kp/Kd, dNTP)control/(kp/Kd, dNTP)damaged, target or system Dpo4•DNA binary complex (Saccharolobus solfataricus, UniProt Q97W02), entry "Nc1ccn([C@H]2C[C@H](O)[C@@H](COP(=O)(O)OP(=O)(O)OP(=O)(O)O)O2)c(=O)n1" 12

Reference source: paper PMC4133103
